Attribution: patent US11020374B2

- assay_name: One-week stability studies (40° C./75% RH, 80° C., ambient light) by XRPD and HPLC
- Type: physicochemical
- test_conditions: one week at 80° C. and ambient humidity, sealed vial

molecule: COc1ccc(NS(=O)(=O)c2cc(CN3CCCC3)c(O)c(CN3CCCC3)c2)cc1.COc1ccc(NS(=O)(=O)c2cc(CN3CCCC3)c(O)c(CN3CCCC3)c2)cc1.O=S(=O)(O)CCS(=O)(=O)O [Example 14]
stability by XRPD / appearance: unchanged
--
molecule: COc1ccc(NS(=O)(=O)c2cc(CN3CCCC3)c(O)c(CN3CCCC3)c2)cc1.O=S(=O)(O)c1cccc2c(S(=O)(=O)O)cccc12 [Example 5]
stability by XRPD / appearance: unchanged
